These entries and their values trace back to patent US7087628B2.

# System: Primary Rat Hippocampal Cells
# test description: Neurite outgrowth assay in primary rat hippocampal cells (MAP-2 immunofluorescence)
# Type: cell-based
# condition info: neurite outgrowth response reported as percent of DMSO-treated control; MAP-2 fluorescence; cells 7 days in culture
attribute measured: Rat Hippocampal Cell Response
Quick one: just the number, no unit, thanks!

Please review the entries below; each comes with its answer.
{"compound": "CCC(C)(C)C(=O)C(=O)N1CCCC1C(=O)NNc1ccncc1Br (stereo not shown) [(3)]", "attribute measured": "Rat Hippocampal Cell Response", "result number": 106}
{"compound": "CCC(C)(C)C(=O)C(=O)N1CCCC1C(=O)NNc1ccc2ccccc2n1 (stereo not shown) [(2)]", "attribute measured": "Rat Hippocampal Cell Response", "result number": 107}
{"compound": "O=C(NNc1ccccn1)[C@@H]1CCN1S(=O)(=O)Cc1ccccc1 [Compound (10)]", "attribute measured": "Rat Hippocampal Cell Response", "result number": 115}
{"compound": "CCC(C)(C)C(=O)C(=O)N1CCCC1C(=O)NNc1ncc(C(F)(F)F)cc1Cl (stereo not shown) [(8)]", "attribute measured": "Rat Hippocampal Cell Response", "result number": 106}
{"compound": "CCC(C)(C)C(=O)C(=O)N1CCCC1C(=O)NNc1cc(C)c2c(C)nn(C)c2n1 (stereo not shown) [(4)]", "attribute measured": "Rat Hippocampal Cell Response", "result number": 105}
{"compound": "CCC(C)(C)C(=O)C(=O)N1CCCC1C(=O)NNc1ccccn1 (stereo not shown) [Compound (1)]", "attribute measured": "Rat Hippocampal Cell Response", "result number": 157}

IN: Fill in the blank: the reported Rat Hippocampal Cell Response of Cc1cc(C(F)(F)F)cc(NNC(=O)C2CCCCN2C(=O)C(=O)c2cccs2)n1 (stereo not shown) [Compound (9)] is ____.
OUT: 118

###

# Tested on: Primary Rat Hippocampal Cells
# test description: Neurite outgrowth assay in primary rat hippocampal cells (MAP-2 immunofluorescence)
# Type: cell-based
# condition info: neurite outgrowth response reported as percent of DMSO-treated control; MAP-2 fluorescence; cells 7 days in culture
Measured Rat Hippocampal Cell Response of individual entries

Please review the entries below; each comes with its answer.
{"molecule": "CCC(C)(C)C(=O)C(=O)N1CCCC1C(=O)NNc1c([N+](=O)[O-])c(C)nn1C (stereo not drawn)", "Rat Hippocampal Cell Response": "<100"}
{"molecule": "CCC(C)(C)C(=O)C(=O)N1CCCC1C(=O)NNc1cc(C(F)(F)F)cc(C)n1 (stereo not drawn)", "Rat Hippocampal Cell Response": "<100"}

// below: Rat Hippocampal Cell Response requested for another molecule
IN: Fill in the blank: the reported Rat Hippocampal Cell Response of CCC(C)(C)C(=O)C(=O)N1CCCC1C(=O)NN(C)c1cc(C(F)(F)F)cc(C)n1 (stereo not drawn) is ____.
OUT: <100
